Every entry's value here was drawn from the supplement of paper PMC8728848.

EXPERIMENTAL TARGET: Neu5Ac(a2-6)Gal(b1-4)Glc
ASSAY NAME: glycan array binding signal (z-score within array); higher = stronger binding
REPORTED CONDITIONS: glycan notation: IUPAC condensed, linker removed
The sample as a whole holds a higher share of the strongest signals than the screen did.
METRIC: glycan array binding signal (z-score)
I only need the number, thanks.

[
  {
    "BINDER": "CLECSF8 (Mus musculus), Q9Z2H6 (protein) HYFLRWTRGSVVKLSDYHTRVTCIREEPQPGATGGTWTCCPVSWRAFQSNCYFPLNDNQTWHESERNCSGMSSHLVTINTEAEQNFVTQLLDKRFSYFLGLADENVEGQWQWVDKTPFNPHTVFWEKGESNDFMEEDCVVLVHVHEKWVWNDFPCHFEVRRICKLPGITFNWKPSK",
    "glycan array binding signal (z-score)": -0.424
  }
]

Now turn to the next binder.
Per the records, this binder ( Layilin (Mus musculus), Q8C351 (protein) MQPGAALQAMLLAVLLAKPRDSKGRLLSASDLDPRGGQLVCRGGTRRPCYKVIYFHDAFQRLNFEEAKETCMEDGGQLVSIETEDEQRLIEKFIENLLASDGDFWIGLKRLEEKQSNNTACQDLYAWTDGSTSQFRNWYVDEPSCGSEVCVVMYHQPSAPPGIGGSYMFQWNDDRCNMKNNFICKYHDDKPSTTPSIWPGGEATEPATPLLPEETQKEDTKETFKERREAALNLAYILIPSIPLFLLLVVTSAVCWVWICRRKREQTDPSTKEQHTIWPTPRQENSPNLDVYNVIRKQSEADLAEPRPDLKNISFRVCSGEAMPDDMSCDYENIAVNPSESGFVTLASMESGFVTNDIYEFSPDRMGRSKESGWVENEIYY ) has glycan array binding signal (z-score) equal to 0.086
